pIC50: −log10 of the molar value.
Please find below pIC50 measurements for Aurora kinase B (Homo sapiens, UniProt Q96GD4), combined from several publications.

Compound: O=CN1CCC(Oc2ccc(-c3n[nH]c4ccc(C(=O)NC(c5ccsc5)C5CC5)cc34)cc2)CC1 (stereo not shown)
pIC50: ≥ 5.30
--
Compound: CN(C)c1ccc(Nc2nccc(-c3c[nH]c4ccccc34)n2)cc1
pIC50: 6.14
--
Compound: O=C1Nc2cc(Cl)ccc2/C1=C\c1ccc2cn[nH]c2c1
pIC50: > 5.30

Okay, now this compound:
[Q] # get_value(readout='pIC50', item= COc1cc2c(Oc3ccc(NC(=O)Nc4ccccc4)cc3)ccnc2cc1OCC[C@@H](N)C(=O)O )
[A] > 5.70

----------
# IC50 against Aurora kinase B (Homo sapiens, UniProt Q96GD4), merged from multiple literature sources

Solved entries:
Compound: COc1cc(-c2n[nH]c3ccc(C(=O)NC(c4ccccc4)C4CC4)cc23)ccc1OC1CCN(C)CC1 (stereo not drawn)
Result: ≤ 5000 nM
--
Compound: CCC1CC2/C=C\COc3cccc(c3)Nc3ncc(F)c(n3)N[C@H]2[C@H]1C(N)=O (stereo partly drawn)
Result: 1 to 100 nM
--
Compound: CN(C)Cc1cc(CN2CCN(C(=O)c3cccc(Cl)c3F)CC2)nc(Nc2nccs2)c1
Result: 1100 nM
--
Compound: O=C1Nc2ncccc2C1=Cc1ccc2c(/C=C/c3ccc(C(=O)O)cc3)n[nH]c2c1 (mixture of isomers)
Result: < 5000 nM

[Q] Could you share what IC50 was measured for CN(C)C(=O)c1cc(CN2C[C@@H]3C[C@H]2CN3C(=O)c2cccc(Cl)c2F)nc(Nc2nccs2)c1 , tested on Aurora kinase B (Homo sapiens, UniProt Q96GD4)?
[A] 260 nM

[Q] Follow-up item: COc1cc2c(Oc3ccc(NC(=O)c4ccccc4)cc3)ccnc2cc1OCC[C@H](N)C(=O)OC1CCCC1
[A] 2000 to 5000 nM

----------
Listing of pIC50 toward Aurora kinase B (Homo sapiens, UniProt Q96GD4), each taken from a published source.
pIC50: −log10 of the molar value.

A selection of reference data follows.
Mol: Clc1ccn2ncnc(Sc3ccc(Nc4nnc(-c5ccccc5)c5ccccc45)cc3)c12
Target Or System: Aurora kinase B (Homo sapiens, UniProt Q96GD4)
Reported Endpoint: pIC50
Result: > 7.00

Mol: NC(=O)[C@H]1[C@H]2C[C@H]3[C@H]1Nc1nc(ncc1F)Nc1cccc(c1)CS(=O)(=O)N[C@@H]3C2
Target Or System: Aurora kinase B (Homo sapiens, UniProt Q96GD4)
Reported Endpoint: pIC50
Result: 6.00 to 7.00

Mol: CC(=O)Nc1ccc2c(c1)/C(=C\c1ccc3cn[nH]c3c1)C(=O)N2
Target Or System: Aurora kinase B (Homo sapiens, UniProt Q96GD4)
Reported Endpoint: pIC50
Result: 4.30 to 5.30

Mol: COc1ccc2c(c1)/C(=C\c1ccc3c(/C=C/c4ccc(C(=O)O)cc4)n[nH]c3c1)C(=O)N2
Target Or System: Aurora kinase B (Homo sapiens, UniProt Q96GD4)
Reported Endpoint: pIC50
Result: > 5.30

Kindly review the next compound as well.
[Q] Requested field: pIC50. Item: COc1cc2c(Oc3ccc(NC(=O)c4cccc(F)c4)cc3)ccnc2cc1OCC[C@H](N)C(=O)OC1CCCC1
[A] 5.30 to 5.70

----------
Collected set of IC50 measured with Aurora kinase B (Homo sapiens, UniProt Q96GD4) across studies.
Reported Endpoint: IC50 (nM)

Use the examples below as a reference point.
Molecule: CC(C)(O)Cc1nc2ccc(Nc3ncc(Cl)c(NC4CCN(c5ccc(C#N)cn5)CC4)n3)cn2n1
IC50, nM: 793
--
Molecule: Cn1cc(Nc2ncc(Cl)c(N[C@@H]3COC4C3OC[C@@H]4NS(=O)(=O)CC3CCCO3)n2)cn1 (stereo partly drawn)
IC50, nM: 21
--
Molecule: COc1cc(-c2ccc3c(c2)NC(=O)/C3=C\c2[nH]c3c(c2CCC(=O)O)C(=O)CCC3)ccc1O
IC50, nM: 2240
--
Molecule: Cc1cc(Nc2cc(C)[nH]n2)nc(N2CC[C@H](NC(=O)OC(C)(C)C)C2)n1
IC50, nM: 1800
--
Molecule: CC(C)(O)Cn1nnc2cc(Nc3ncc(Cl)c(NC4CCN(c5ccc(C#N)nn5)CC4)n3)ccc21
IC50, nM: 48

1 = CC(=O)N1CCN(c2ccc(Nc3nccc(-c4c(C)[nH]c5ccccc45)n3)cc2)CC1
2 = Cc1cccc(C(=O)N2CCN(Cc3cccc(Nc4nccs4)n3)CC2)c1F
[Q] Which value of IC50 is smaller, the one for 1 or the one for 2 ? Use the label to indicate which entry you chose.
[A] 1

----------
pIC50: −log10 of the molar value.
Several reports have described pIC50 for UniProtKB Q96GD4; a selection of those results is presented here.

Mol: CN1CCN(c2ccc3cc2CC(=O)N[C@@H]2C[C@@H]4C[C@H]2[C@@H](Nc2nc(ncc2F)N3)[C@H]4C(N)=O)CC1
Target Or System: UniProtKB Q96GD4
pIC50: 7.00 to 9.00
--
Mol: Cc1cc(Nc2cc(N3CCN(C)CC3)nc(-c3ccc4c(c3)OCO4)n2)n[nH]1
Target Or System: UniProtKB Q96GD4
pIC50: ≥ 6.00
--
Mol: CN1Cc2cccc(c2)Nc2ncc(F)c(n2)N[C@@H]2[C@@H]3C[C@@H](C[C@H]3C1)[C@@H]2C(N)=O
Target Or System: UniProtKB Q96GD4
pIC50: 7.00 to 9.00
--
Mol: COc1cc2c(Oc3ccc(NC(=O)Nc4ccccc4)cc3)ccnc2cc1OCCC[C@@H](N)C(=O)O
Target Or System: UniProtKB Q96GD4
pIC50: > 5.70

[Q] Find the recorded pIC50 belonging to COC(=O)c1ccc(/C=C/c2n[nH]c3cc(/C=C4\C(=O)Nc5ccccc54)ccc23)cc1 and report it.
[A] > 5.30
